# tgt: Kallikrein-5 (Homo sapiens, UniProt Q9Y337)
# Sequence (Q9Y337 whole entry): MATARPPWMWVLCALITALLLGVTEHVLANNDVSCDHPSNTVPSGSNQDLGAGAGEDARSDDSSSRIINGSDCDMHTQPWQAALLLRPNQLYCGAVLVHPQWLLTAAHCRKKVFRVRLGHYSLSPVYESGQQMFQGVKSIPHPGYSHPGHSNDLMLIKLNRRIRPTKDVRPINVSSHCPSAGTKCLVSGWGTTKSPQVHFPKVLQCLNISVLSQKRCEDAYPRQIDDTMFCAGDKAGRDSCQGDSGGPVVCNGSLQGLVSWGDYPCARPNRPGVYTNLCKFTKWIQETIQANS
# protocol-description: Inhibition of recombinant 6His-Q-FLAG tagged human KLK5 expressed in baculovirus infected Sf9 insect cells using (Tos-Gly-Pro-Arg)2[R110].2TFA as substrate measured at 30 secs interval for 5 mins by fluorescence intensity assay
# experimental-context: read-out: pIC50 (converted)
Listing: IC50 of selected compounds
Give the value in µM but do not write µM after it.

| compound-smiles | tgt | recorded-number |
| --- | --- | --- |
| N=C(N)c1ccc(NCc2ncc[nH]2)cc1 | Kallikrein-5 (Homo sapiens, UniProt Q9Y337) | 25.1 |

[in] Let me know recorded IC50 for `CCOc1cc(NCc2nc(-c3ccccc3)c[nH]2)ccc1C(=N)N` , thanks.
[out] 0.316

[in] Give the reported IC50 for this compound. `CC(C)COc1cc(NCc2nc(-c3ccccc3)c[nH]2)ccc1C(=N)N`
[out] 6.31

[in] Please report the measured IC50 for `N=C(N)c1ccc(NCc2nc(-c3ccccc3)c[nH]2)cc1OCC(=O)NCC1CC1`
[out] 0.0398
